Recorded measurements of EC50, one per entry
TARGET OF ASSAY: Alpha-1D adrenergic receptor (Homo sapiens, UniProt P25100)
Sequence (P25100 whole entry): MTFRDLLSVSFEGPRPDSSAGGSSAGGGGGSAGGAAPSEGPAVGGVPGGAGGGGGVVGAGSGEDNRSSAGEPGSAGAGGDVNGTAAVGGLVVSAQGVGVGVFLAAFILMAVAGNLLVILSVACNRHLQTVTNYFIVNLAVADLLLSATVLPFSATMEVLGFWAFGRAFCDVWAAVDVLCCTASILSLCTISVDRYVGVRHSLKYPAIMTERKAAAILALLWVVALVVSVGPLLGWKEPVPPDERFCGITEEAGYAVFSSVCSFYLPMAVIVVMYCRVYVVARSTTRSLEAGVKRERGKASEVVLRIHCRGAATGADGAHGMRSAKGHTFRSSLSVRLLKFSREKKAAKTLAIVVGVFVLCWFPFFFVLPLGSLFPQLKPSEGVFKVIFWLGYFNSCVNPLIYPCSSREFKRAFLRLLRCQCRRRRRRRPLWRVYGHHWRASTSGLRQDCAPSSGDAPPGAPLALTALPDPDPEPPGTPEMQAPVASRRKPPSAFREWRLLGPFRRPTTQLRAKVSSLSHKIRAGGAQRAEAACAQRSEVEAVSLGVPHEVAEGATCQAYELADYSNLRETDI
ASSAY OVERVIEW: Agonist activity at human cloned adrenergic Alpha-1D receptor expressed in CHO cells assessed as calcium mobilization by FLIPR
Format: functional, cell-based
TEST CONTEXT: cho

Lab note: molecule CS(=O)(=O)Nc1cccc2c1CCCC2c1ncc[nH]1 (stereo in doubt; 17) tested on Alpha-1D adrenergic receptor (Homo sapiens, UniProt P25100); recorded EC50 was > 10 µM

Next:
Lab note: molecule CS(=O)(=O)Nc1cccc2c1CCCC2c1ncc[nH]1 (stereo in doubt; 17a) tested on Alpha-1D adrenergic receptor (Homo sapiens, UniProt P25100); recorded EC50 was > 10 µM

---

Recorded measurements of pEC50, one per entry
TARGET OF ASSAY: UniProtKB P08913
Sequence (P08913 whole entry): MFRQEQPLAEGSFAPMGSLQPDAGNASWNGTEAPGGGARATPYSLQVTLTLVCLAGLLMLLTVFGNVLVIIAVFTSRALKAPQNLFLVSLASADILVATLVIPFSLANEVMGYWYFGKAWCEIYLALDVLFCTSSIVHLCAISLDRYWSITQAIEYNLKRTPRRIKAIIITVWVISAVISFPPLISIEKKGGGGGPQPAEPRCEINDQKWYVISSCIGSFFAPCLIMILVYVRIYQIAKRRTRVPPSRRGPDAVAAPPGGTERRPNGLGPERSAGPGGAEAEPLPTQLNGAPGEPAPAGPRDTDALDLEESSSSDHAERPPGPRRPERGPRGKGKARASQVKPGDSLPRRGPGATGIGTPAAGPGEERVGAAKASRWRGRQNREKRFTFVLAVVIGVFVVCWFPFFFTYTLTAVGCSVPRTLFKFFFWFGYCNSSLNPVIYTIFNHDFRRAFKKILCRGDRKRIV
ASSAY OVERVIEW: Agonist activity at human cloned adrenergic alpha-2A receptor expressed in CHOK1 cells by beta-lactamase reporter gene assay
Type: functional, cell-based, CHO-K1
pEC50: −log10 of the molar value.

Use these answered entries as a reference point.
The compound listed as CS(=O)(=O)Nc1cccc2c1CCC2c1ncc[nH]1 (configuration not stated) shows pEC50 equal to < 5.00

The compound listed as CNC(=O)c1cccc2c1CCC2c1ncc[nH]1 (configuration not stated) shows pEC50 equal to 5.36

The compound listed as c1ccc(-c2cccc3c2CCC3c2ncc[nH]2)nc1 (configuration not stated) shows pEC50 equal to < 5.00

The compound listed as c1cc(-c2nccs2)c2c(c1)C(c1ncc[nH]1)CC2 (configuration not stated) shows pEC50 equal to < 5.00

Next:
The compound listed as c1cncc(-c2cccc3c2CCC3c2ncc[nH]2)c1 (configuration not stated) shows pEC50 equal to 5.34

---

TARGET OF ASSAY: Alpha-1D adrenergic receptor (Homo sapiens, UniProt P25100)
ASSAY OVERVIEW: Agonist activity at human cloned adrenergic Alpha-1D receptor expressed in CHO cells assessed as calcium mobilization by FLIPR
Assay type: functional, cell-based
pEC50: −log10 of the molar value.
REPORTED ENDPOINT: pEC50

Use these answered entries as a reference point.
The compound listed as CS(=O)(=O)Nc1cccc2c1CCC2c1ncc[nH]1 (stereo not drawn) shows pEC50 equal to < 5.00

The compound listed as CS(=O)(=O)Nc1c(Cl)ccc2c1CCCC2c1ncc[nH]1 (stereo not drawn) shows pEC50 equal to < 5.00

The compound listed as c1cncc(-c2cccc3c2CCC3c2ncc[nH]2)c1 (stereo not drawn) shows pEC50 equal to < 5.00

The compound listed as CCS(=O)(=O)Nc1cccc2c1CCC2c1ncc[nH]1 (stereo not drawn) shows pEC50 equal to < 5.00

Next:
The compound listed as CCS(=O)(=O)Nc1cccc(Cc2c[nH]cn2)c1 shows pEC50 equal to < 5.00

The compound listed as Cc1[nH]ncc1-c1cccc2c1CCC2c1ncc[nH]1 (stereo not drawn) shows pEC50 equal to 6.20

The compound listed as c1cc(-c2cn[nH]c2)c2c(c1)C(c1ncc[nH]1)CC2 (stereo not drawn) shows pEC50 equal to 6.50

The compound listed as c1ccc(-c2cccc3c2CCC3c2ncc[nH]2)nc1 (stereo not drawn) shows pEC50 equal to < 5.00

The compound listed as c1ccc2c(c1)CCC2c1ncc[nH]1 (stereo not drawn) shows pEC50 equal to < 5.00

---

TARGET OF ASSAY: CYP3A4 (Homo sapiens)
Sequence (P08684 whole entry): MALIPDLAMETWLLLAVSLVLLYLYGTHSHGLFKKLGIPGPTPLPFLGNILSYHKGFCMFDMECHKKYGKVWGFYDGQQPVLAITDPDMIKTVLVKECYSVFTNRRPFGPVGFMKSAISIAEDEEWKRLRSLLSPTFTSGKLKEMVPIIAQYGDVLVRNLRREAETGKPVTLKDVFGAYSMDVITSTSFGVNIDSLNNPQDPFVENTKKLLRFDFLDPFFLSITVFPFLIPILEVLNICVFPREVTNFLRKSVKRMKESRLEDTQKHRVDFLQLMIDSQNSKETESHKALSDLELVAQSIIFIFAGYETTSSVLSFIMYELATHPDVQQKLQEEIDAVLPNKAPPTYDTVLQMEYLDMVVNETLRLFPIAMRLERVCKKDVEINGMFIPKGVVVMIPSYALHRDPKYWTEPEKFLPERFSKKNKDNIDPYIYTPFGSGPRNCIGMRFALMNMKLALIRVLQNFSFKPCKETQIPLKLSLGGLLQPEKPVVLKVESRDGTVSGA
ASSAY OVERVIEW: Inhibition of CYP3A4 at 10 uM
Format: ADME
REPORTED ENDPOINT: inhibition at 10 µM

The compound listed as CS(=O)(=O)Nc1c(Cl)ccc2c1CCCC2c1ncc[nH]1 (stereo unspecified) shows inhibition at 10 µM equal to < 25%

---

TARGET OF ASSAY: Alpha-1A adrenergic receptor (Homo sapiens)
ASSAY OVERVIEW: Agonist activity at human cloned adrenergic alpha-1A receptor expressed in CHO cells assessed as calcium mobilization by FLIPR relative to phenylephrine
Format: functional, cell-based
REPORTED ENDPOINT: Emax (%)
Quick reminder: number only, in %, skip the unit.

Use these answered entries as a reference point.
The compound listed as Cc1oncc1-c1cccc2c1CCC2c1ncc[nH]1 (stereo unspecified) shows Emax equal to 63

The compound listed as COc1cccc2c1CCC2c1ncc[nH]1 (stereo unspecified) shows Emax equal to 65

Next:
The compound listed as CS(=O)(=O)Nc1cccc2c1CCCC2c1ncc[nH]1 (stereo in doubt; 17a) shows Emax equal to 79

---

TARGET OF ASSAY: Alpha-1A adrenergic receptor (Homo sapiens) (UniProt P35348)
Sequence (whole entry): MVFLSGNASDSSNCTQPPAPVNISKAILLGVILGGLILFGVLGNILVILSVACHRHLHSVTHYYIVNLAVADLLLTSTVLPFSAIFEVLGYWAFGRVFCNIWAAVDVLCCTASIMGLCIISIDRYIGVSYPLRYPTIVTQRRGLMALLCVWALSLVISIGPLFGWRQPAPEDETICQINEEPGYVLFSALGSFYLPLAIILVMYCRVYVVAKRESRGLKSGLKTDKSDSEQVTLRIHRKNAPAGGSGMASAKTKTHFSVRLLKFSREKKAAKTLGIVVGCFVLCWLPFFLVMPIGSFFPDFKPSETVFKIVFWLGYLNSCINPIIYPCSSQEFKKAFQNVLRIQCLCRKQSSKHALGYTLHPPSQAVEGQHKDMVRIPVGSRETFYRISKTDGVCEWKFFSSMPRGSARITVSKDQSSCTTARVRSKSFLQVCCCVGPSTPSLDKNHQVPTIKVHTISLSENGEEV
ASSAY OVERVIEW: Agonist activity at human cloned adrenergic alpha-1A receptor expressed in CHO cells assessed as calcium mobilization by FLIPR relative to phenylephrine
Format: functional, cell-based
Emax strictly under 60% means class 1; at 60% or over means class 0.

Worked examples, 5 compounds total:
Quick check: Emax of c1cc(-c2ccn[nH]2)c2c(c1)C(c1ncc[nH]1)CC2 (configuration not stated) under 60%?
class 0

Quick check: Emax of c1cc(-c2cn[nH]c2)c2c(c1)C(c1ncc[nH]1)CC2 (configuration not stated) under 60%?
class 0

Quick check: Emax of c1cc(-c2nccs2)c2c(c1)C(c1ncc[nH]1)CC2 (configuration not stated) under 60%?
class 0

Quick check: Emax of CCS(=O)(=O)Nc1cccc2c1CCC2c1ncc[nH]1 (configuration not stated) under 60%?
class 0

Quick check: Emax of COc1c(Cl)ccc2c1CCC2c1ncc[nH]1 (configuration not stated) under 60%?
class 1

Next:
Quick check: Emax of c1ccc(-c2cccc3c2CCC3c2ncc[nH]2)nc1 (configuration not stated) under 60%?
class 1
